# System: mortality with pentetrazole in mice
# assay.notes: Potentiation of mortality with pentetrazole in mice
# Type: in vivo
# conditions.used: per os
The compounds listed here are annotated with their Potentiation of mortality with pentetrazole in mice ED50.

Examples from the recorded data:
For reference, reported Potentiation of mortality with pentetrazole in mice ED50 for CCOC(=O)CCN1CCN(CCOC(c2ccccc2)c2ccccc2)CC1 stands at > 400 mg/kg

Memo: O=C(O)CCCN1CCN(CCOC(c2ccccc2)c2ccccc2)CC1 , reported Potentiation of mortality with pentetrazole in mice ED50: > 300 mg/kg

// switching to the query compound
Item: CCOC(=O)CCN1CCN(CCOC(c2ccc(F)cc2)c2ccc(F)cc2)CC1.Cl.Cl | Potentiation of mortality with pentetrazole in mice ED50: > 100 mg/kg
